experimental-system: CDK7/Cyclin H/MNAT1 (Homo sapiens)
Sequence (P51946 whole entry): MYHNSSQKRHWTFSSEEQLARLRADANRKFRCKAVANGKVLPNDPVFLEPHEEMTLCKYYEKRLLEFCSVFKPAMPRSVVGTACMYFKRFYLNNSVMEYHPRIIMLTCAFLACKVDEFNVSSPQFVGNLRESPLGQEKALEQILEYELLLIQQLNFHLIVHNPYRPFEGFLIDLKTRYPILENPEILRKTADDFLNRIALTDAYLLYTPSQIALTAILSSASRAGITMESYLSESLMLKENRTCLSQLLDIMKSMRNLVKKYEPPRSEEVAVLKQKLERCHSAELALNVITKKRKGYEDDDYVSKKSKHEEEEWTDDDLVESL
Sequence (P50613 whole entry): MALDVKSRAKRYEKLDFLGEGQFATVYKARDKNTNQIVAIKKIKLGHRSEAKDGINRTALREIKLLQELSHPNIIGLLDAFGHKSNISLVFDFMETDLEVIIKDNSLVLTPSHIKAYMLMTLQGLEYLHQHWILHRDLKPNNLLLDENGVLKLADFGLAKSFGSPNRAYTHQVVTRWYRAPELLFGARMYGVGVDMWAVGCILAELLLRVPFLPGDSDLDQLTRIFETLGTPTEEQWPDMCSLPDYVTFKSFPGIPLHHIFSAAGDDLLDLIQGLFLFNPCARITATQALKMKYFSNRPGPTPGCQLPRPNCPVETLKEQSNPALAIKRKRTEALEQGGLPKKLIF
Sequence (P51948 whole entry, further chain): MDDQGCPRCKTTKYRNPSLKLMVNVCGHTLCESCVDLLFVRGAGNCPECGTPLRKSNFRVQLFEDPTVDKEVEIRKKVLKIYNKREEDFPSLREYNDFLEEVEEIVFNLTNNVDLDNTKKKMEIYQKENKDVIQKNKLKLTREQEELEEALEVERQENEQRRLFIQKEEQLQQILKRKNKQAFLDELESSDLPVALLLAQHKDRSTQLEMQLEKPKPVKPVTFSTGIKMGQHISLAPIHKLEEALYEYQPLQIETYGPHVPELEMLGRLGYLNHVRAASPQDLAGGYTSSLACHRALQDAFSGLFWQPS
assay-explanation: Displacement of kinase tracer 236 from CDK7/Cyclin H/MAT1 (unknown origin) assessed as dissociation constant incubated for 1 hr by LanthScreen Eu kinase binding assay
result-type: pKd
Lab note: report pKd as minus log10 of the concentration in molar units, number only.

Quick one: pKd for `COc1ccccc1-c1cc(Nc2cccc(NS(C)(=O)=O)c2)ncn1` ?
4.80

====

experimental-system: Glycogen synthase kinase-3 alpha (Homo sapiens, UniProt P49840)
result-type: IC50 (µM)
Express it in µM; write the number only.

Quick one: IC50 for `COc1ccccc1-c1cc(Nc2cccc(NS(C)(=O)=O)c2)ncn1` ?
1.46

====

experimental-system: Mitogen-activated protein kinase kinase kinase kinase 4 (Homo sapiens)
Sequence (O95819 whole entry): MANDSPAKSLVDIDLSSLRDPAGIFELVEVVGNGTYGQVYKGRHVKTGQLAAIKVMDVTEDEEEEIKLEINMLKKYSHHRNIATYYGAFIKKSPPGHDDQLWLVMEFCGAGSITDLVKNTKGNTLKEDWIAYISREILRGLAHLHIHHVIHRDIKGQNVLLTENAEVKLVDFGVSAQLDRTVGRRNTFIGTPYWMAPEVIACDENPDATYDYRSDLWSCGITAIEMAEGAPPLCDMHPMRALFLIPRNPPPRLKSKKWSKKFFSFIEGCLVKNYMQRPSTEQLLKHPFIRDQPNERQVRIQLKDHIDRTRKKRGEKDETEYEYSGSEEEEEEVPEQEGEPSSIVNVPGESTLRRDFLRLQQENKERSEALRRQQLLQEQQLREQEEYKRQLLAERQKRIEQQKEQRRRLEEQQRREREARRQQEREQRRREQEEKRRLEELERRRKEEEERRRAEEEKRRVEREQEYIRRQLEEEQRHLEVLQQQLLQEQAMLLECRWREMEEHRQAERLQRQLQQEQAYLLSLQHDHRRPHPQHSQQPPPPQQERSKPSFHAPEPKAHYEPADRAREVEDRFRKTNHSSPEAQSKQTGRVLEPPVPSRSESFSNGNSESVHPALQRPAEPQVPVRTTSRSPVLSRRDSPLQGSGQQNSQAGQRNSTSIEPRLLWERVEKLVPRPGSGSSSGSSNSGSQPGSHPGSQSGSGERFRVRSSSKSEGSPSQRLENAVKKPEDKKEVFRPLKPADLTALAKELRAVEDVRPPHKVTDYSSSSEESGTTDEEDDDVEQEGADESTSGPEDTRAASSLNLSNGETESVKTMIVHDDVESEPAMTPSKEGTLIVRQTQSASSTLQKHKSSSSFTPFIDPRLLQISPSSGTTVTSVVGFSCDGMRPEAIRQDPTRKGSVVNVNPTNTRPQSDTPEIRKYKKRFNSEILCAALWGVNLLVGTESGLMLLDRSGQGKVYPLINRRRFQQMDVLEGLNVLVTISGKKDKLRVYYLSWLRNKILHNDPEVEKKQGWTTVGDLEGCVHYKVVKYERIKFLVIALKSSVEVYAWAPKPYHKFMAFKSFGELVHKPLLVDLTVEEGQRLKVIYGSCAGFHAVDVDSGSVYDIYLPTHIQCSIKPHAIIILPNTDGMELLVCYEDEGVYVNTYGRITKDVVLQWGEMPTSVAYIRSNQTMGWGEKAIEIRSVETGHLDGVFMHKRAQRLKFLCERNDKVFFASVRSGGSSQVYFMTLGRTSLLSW
assay-explanation: Inhibition of MAP4K4 (unknown origin) incubated for 120 mins in presence of 33P-ATP by radiometric kinase assay
result-type: IC50 (nM)
Express it in nM; write the number only.

Quick one: IC50 for `COc1ccccc1-c1cc(Nc2cccc(NS(C)(=O)=O)c2)ncn1` ?
820

====

experimental-system: CDK9/cyclin T1 (Homo sapiens)
Sequence (O60563 whole entry): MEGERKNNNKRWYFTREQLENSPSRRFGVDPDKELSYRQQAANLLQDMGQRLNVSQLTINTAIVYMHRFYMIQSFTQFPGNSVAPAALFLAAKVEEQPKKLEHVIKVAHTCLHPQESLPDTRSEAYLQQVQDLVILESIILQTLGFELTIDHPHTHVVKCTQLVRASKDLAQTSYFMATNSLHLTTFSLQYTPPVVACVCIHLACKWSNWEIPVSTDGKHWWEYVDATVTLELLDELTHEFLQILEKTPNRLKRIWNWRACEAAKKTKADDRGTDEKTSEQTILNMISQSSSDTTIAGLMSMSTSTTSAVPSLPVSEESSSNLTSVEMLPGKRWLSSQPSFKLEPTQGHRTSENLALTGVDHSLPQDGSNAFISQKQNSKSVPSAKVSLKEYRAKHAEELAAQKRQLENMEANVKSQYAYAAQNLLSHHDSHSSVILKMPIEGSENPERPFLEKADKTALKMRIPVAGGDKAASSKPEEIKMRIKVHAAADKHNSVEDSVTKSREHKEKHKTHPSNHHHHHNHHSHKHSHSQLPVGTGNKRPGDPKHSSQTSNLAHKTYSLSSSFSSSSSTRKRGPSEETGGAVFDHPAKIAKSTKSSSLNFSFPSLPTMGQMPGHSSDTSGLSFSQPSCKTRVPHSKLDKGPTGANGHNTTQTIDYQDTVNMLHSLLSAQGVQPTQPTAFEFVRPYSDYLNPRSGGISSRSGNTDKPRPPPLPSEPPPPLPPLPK
Sequence (P50750 whole entry): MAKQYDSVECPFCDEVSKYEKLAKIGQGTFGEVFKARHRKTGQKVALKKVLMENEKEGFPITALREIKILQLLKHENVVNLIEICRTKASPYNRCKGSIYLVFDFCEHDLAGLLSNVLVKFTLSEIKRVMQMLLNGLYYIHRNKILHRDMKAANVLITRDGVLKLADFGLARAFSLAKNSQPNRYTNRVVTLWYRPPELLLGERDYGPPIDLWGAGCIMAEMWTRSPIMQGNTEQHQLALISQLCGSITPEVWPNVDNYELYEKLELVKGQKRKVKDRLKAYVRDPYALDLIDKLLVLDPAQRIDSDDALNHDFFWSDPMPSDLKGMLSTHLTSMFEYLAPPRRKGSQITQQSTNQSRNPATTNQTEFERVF
assay-explanation: Displacement of kinase tracer 236 from CDK9/Cyclin T1 (unknown origin) assessed as dissociation constant incubated for 1 hr by LanthScreen Eu kinase binding assay
result-type: pKd
Lab note: report pKd as minus log10 of the concentration in molar units, number only.

Quick one: pKd for `OC[C@H]1O[C@@H](n2cnc3cc(Cl)c(Cl)cc32)[C@H](O)[C@@H]1O` ?
6.21

====

experimental-system: CDK6/cyclin D3 (Homo sapiens)
Sequence (P30281 whole entry): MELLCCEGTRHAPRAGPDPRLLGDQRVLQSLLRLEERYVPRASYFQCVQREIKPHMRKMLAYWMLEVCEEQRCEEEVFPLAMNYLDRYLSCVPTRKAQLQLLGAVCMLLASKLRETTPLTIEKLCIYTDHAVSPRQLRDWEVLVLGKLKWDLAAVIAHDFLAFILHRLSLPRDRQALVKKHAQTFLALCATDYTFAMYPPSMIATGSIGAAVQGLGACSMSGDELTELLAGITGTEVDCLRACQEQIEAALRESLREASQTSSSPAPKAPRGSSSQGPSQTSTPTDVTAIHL
Sequence (Q00534 whole entry): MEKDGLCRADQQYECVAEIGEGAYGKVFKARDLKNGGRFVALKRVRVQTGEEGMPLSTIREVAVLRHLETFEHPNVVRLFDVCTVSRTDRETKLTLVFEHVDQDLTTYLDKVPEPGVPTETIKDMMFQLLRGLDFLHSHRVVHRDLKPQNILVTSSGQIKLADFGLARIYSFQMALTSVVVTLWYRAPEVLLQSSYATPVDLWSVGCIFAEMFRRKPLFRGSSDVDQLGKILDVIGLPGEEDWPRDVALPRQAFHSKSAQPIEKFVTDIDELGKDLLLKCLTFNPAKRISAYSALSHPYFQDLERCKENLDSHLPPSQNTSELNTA
assay-explanation: Inhibition of CDK6/Cyclin D3 (unknown origin) using ULight MBP peptide as substrate in presence of ATP incubated for 1 hr by FRET based LANCE Ultra KinaSelect screen assay
Reported IC50 values for the following compounds.

OC[C@H]1O[C@@H](n2cnc3cc(Cl)c(Cl)cc32)[C@H](O)[C@@H]1O > 10 µM

Then there is this compound:
Test system CDK6/cyclin D3 (Homo sapiens); read-out IC50; what value for `COc1ccccc1-c1cc(Nc2cccc(NS(C)(=O)=O)c2)ncn1` ?
> 10 µM

====

Reported IC50 values for the following compounds.
experimental-system: Cyclin-dependent kinase 1/cyclin B1 (Homo sapiens)
Sequence (P06493 whole entry): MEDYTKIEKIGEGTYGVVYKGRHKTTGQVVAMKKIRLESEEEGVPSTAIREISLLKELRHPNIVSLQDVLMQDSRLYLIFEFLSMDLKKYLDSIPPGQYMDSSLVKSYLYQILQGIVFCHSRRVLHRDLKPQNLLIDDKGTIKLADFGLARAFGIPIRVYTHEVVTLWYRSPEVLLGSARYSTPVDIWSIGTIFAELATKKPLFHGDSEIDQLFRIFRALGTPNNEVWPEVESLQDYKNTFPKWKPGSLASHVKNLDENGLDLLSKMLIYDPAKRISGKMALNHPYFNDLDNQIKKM
Sequence (P14635 whole entry, further chain): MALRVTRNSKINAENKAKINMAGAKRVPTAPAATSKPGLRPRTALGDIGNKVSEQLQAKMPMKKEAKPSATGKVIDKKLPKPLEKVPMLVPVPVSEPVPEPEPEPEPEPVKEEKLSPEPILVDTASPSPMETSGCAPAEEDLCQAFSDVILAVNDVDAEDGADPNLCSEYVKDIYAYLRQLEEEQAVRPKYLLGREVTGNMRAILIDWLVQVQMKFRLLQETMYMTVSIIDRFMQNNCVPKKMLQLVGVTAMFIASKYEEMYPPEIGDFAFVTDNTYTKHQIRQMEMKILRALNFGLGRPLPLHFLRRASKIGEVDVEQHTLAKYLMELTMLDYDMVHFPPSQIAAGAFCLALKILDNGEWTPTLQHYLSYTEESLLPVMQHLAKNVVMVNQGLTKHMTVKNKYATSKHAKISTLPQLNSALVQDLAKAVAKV
assay-explanation: Inhibition of CDK1/Cyclin B1 (unknown origin) using ULight MBP peptide as substrate in presence of ATP incubated for 1 hr by FRET based LANCE Ultra KinaSelect screen assay

compound	result-type	value-observed
COc1ccccc1-c1cc(Nc2cccc(NS(C)(=O)=O)c2)ncn1	IC50	5.51 µM

Then there is this compound:
Quick one: IC50 for OC[C@H]1O[C@@H](n2cnc3cc(Cl)c(Cl)cc32)[C@H](O)[C@@H]1O [DICHLORORIBOBENZIMIDAZOLE] ?
> 10 µM

====

experimental-system: CDK9/cyclin T1 (Homo sapiens)
assay-explanation: Inhibition of CDK9/Cyclin T1 (unknown origin) using ULight MBP peptide as substrate in presence of ATP incubated for 1 hr by FRET based LANCE Ultra KinaSelect screen assay
result-type: pIC50
Lab note: report pIC50 as minus log10 of the concentration in molar units, number only.

Quick one: pIC50 for OC[C@H]1O[C@@H](n2cnc3cc(Cl)c(Cl)cc32)[C@H](O)[C@@H]1O [DICHLORORIBOBENZIMIDAZOLE] ?
5.71
